Biological target: RBD-biotin
Test: BLI
Listed here are binders together with their documented Kd.
The answer is to be given in nM; state only the numeric part.

// query Quick one: Kd of Ab 16 (scFv, V domains shown) VH: QVQLVQSGGGVVQPGRSLRLSCAASGFTFSNYGMHWVRQAPGKGLEWVALIWERGSKKDYADSVKGRFTVSRDNSKNTLYLQMNSLRPEDTAVYFCAREGISMTGAEYFQHWGQGTLVTVSS VL: QSVLTQPPSVSGSPGQRVTMSCTGSSSNIGAGYDVHWYQQVPGAAPRLLIYGTNNRPSGVPDRFSGSKSGTSASLTITGLQAEDEADYYCQSYDNSLTDPYVFGTGTKVTVL ?
// result 0.959

Okay, next one:
// query Quick one: Kd of Ab 25 (Fc fusion) VH: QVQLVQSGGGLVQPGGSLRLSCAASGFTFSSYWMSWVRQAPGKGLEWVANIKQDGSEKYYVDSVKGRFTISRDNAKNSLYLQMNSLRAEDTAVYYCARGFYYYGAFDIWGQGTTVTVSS VL: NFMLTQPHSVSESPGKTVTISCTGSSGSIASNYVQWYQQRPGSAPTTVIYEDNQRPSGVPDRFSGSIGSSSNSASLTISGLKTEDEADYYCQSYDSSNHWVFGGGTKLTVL ?
// result 0.223
